Where do these numbers come from? They come from patent US12077503B2.

System: Galium (catchweed bedstraw, Galium aparine)
Assay: Test A postemergence
Format: in vivo
Conditions: Galium, post-emergence, 240 h, 125 g ai/ha, Postemergence, visual rating about 10 d after treatment; read-out: Galium plant response rating (0 to 100 scale)

molecule	pest or weed control at 125 g/ha, %
O=C1NC[C@H](c2cc(C(F)(F)F)ccn2)[C@H]1C(=O)Nc1cccc(F)c1F (racemic) [Compound 1376]	0
CN1C[C@H](c2cccc(C(C)(F)F)c2)[C@@H](C(=O)Nc2ccc(F)cc2F)C1=O [Compound 1319]	60
O=C1NC[C@H](c2csc3c2CCOC3)[C@H]1C(=O)Nc1cccc(F)c1F [Compound 1279]	30
CN1C[C@H](c2cccc(C(F)(F)F)c2)[C@@H](C(=O)Nc2ccccc2-n2cncn2)C1=O [Compound 1289]	0
CN1C[C@H](c2ccccc2)[C@@H](C(=O)Nc2cccc(F)c2F)C1=O [Compound 1282]	70
CC(C)=Cc1cc([C@H]2CN(C)C(=O)[C@@H]2C(=O)Nc2cccc(F)c2F)ccc1C(F)(F)F [Compound 1337]	0
O=C(Nc1ccccc1F)[C@H]1C(=O)N(CC(F)F)C[C@@H]1c1cccc(C(F)(F)F)c1 [Compound 1295]	0
CN1C[C@H](c2cccc(C(F)(F)F)c2)[C@@H](C(=O)Nc2ccccc2-n2cccn2)C1=O [Compound 1284]	0
Cc1cccc([C@H]2CN(C)C(=O)[C@@H]2C(=O)Nc2ccc(F)nc2F)c1 [Compound 1349]	60
CN1C[C@H](c2ccc(C(F)(F)F)nc2)[C@@H](C(=O)Nc2cccc(F)c2F)C1=O [Compound 1372]	60
CN1C[C@H](c2cccc(C#N)c2)[C@@H](C(=O)Nc2ccccc2F)C1=O [Compound 1285]	30
COc1cc([C@H]2CN(C)C(=O)[C@@H]2C(=O)Nc2ccccc2F)ccc1F [Compound 1298]	0
O=C(Nc1cccc(F)c1F)C1C(=O)N(CC(F)F)CC1c1cccc(C(F)(F)F)c1 (stereo not shown) [Compound 1294]	0

* * *

Tested on: ryegrass, Italian (Italian ryegrass, Lolium multiflorum)
Test: Test A postemergence
Type: in vivo
Conditions: Lolium multiflorum, post-emergence, 240 h, 125 g ai/ha, postemergence; visual injury on 0 to 100 scale (0 no effect, 100 complete control), approx. 10 d; read-out: Ryegrass, Italian plant response rating
Reported values of pest or weed control at 125 g/ha for individual entries
quantity_name: pest or weed control at 125 g/ha (%)

molecule	readout_number
C=C(C)c1cccc([C@H]2CN(C)C(=O)[C@@H]2C(=O)Nc2ccc(F)c(F)c2F)c1 [Compound 1087]	0
CN1C[C@H](c2csc3ccccc23)[C@@H](C(=O)Nc2cccc(F)c2F)C1=O [Compound 1115]	20
CN1C[C@H](c2cc(C(F)F)cs2)[C@@H](C(=O)Nc2cccc(F)c2F)C1=O [Compound 1121]	40
Cc1c(F)cccc1NC(=O)[C@H]1C(=O)N(C)C[C@@H]1c1cc(F)cc(F)c1 [Compound 1140]	50
Cc1ccc([C@H]2CNC(=O)[C@]2(Br)C(=O)Nc2cccc(F)c2F)cc1F (racemic) [Compound 1073]	0
CSc1ccccc1NC(=O)[C@H]1C(=O)N(C)C[C@@H]1c1cc(C(F)F)cs1 [Compound 1088]	0
CSc1ccccc1NC(=O)C1C(=O)NCC1C=C(C)C (stereo not shown) [Compound 1055]	0
CC(C)COc1cccc([C@H]2CN(C)C(=O)[C@@H]2C(=O)Nc2cccc(F)c2F)c1 [Compound 1029]	0
CN1CC(c2ccccc2OC(F)(F)C(F)F)C(C(=O)Nc2cccc(F)c2F)C1=O (stereo not shown) [Compound 1056]	0
CN1C[C@H](c2csc3c2CCC3)[C@@H](C(=O)Nc2ccccc2S(C)(=O)=O)C1=O [Compound 1082]	0
